Assay: Terminal half life in mouse brain at 23 umol/kg, ip administered as bolus by LC-MS analysis
Assay type: ADME, organism-based
Details: read-out: beta t1/2
readoutKind: half-life (h)
Field: numeric (h). Do not append units.

Problem: What measured half-life goes with CNC(=O)COc1ccc(-c2c(C#N)c(NC(=O)c3cccc(C[C@H](N)C(=O)O)c3)n3c(nc4ccccc43)c2C#N)cc1 ?
Result: 1.19

====

Assay: Tmax in mouse plasma at 23 umol/kg, ip administered as bolus by LC-MS analysis
Format: ADME, organism-based
readoutKind: Tmax (min)
Response body: numeric value in min, unit text excluded.

Problem: Which Tmax is reported for this compound? CNC(=O)COc1ccc(-c2c(C#N)c(NC(=O)c3cccc(C[C@H](N)C(=O)O)c3)n3c(nc4ccccc43)c2C#N)cc1
Result: 10

Value source: ChEMBL document CHEMBL4425108
